Consider compounds characterized by their IC50 with UniProt P31422.

COMPOUND | IC50
COc1ccc(C#Cc2ccc(C(=O)N3CCCC(CO)C3)cc2)cc1 (stereo not drawn) | 2.46 µM
COc1ccc(C#Cc2ccc(C(=O)N3CCC[C@@H](CO)C3)cc2)cc1 | 1.48 µM

GET /values?readout=IC50&system=UniProt P31422&item= COc1ccc(C#Cc2ccc(C(=O)N3CCC[C@H](CO)C3)cc2)cc1
3.46 µM

---

TARGET_OF_ASSAY: Metabotropic glutamate receptor 3 (Rattus norvegicus) (UniProt P31422)
Sequence (P31422 whole entry, looked up): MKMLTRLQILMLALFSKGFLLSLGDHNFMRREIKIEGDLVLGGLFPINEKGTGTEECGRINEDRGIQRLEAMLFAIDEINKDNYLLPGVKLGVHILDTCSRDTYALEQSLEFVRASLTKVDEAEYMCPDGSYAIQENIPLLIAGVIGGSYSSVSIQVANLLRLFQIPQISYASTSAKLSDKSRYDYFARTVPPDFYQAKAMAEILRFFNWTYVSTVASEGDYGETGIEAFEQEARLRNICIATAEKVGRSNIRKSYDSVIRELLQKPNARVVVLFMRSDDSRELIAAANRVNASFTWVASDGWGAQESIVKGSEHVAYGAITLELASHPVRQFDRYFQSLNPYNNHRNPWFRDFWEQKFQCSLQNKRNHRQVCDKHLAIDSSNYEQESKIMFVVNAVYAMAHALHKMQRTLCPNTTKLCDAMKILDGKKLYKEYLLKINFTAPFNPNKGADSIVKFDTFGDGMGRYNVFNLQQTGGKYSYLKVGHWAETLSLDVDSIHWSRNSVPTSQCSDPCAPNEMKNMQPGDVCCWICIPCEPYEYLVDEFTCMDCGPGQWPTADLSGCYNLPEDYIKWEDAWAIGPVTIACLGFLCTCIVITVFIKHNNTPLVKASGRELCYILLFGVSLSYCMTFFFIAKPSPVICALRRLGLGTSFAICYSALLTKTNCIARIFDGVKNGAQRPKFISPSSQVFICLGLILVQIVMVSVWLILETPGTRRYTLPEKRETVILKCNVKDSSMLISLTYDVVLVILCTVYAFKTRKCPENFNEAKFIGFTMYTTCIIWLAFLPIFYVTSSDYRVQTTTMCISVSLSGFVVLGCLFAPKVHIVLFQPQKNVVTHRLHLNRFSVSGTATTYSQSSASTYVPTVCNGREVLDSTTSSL
TEST_SUMMARY: rat mGlu3 negative modulators or antagonists, dose response, thallium flux, HEK/GIRK cells (AID 623885);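 active means mean half-maximal effective concentration under 30 µM; inactive means the rest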
DETAILS: HEK293 GIRK rat mGlu3, thallium flux fluorescence; at 30 µM (top of the series)
// classify into active, inactive

Recorded call for O=C(c1ccc(C#Cc2ccc(C(F)(F)F)cc2)cc1)N1CCC(O)CC1 ?
active

---

TARGET_OF_ASSAY: Metabotropic glutamate receptor 3 (Rattus norvegicus)
TEST_SUMMARY: rat mGlu3 negative modulators or antagonists, dose response, thallium flux, HEK/GIRK cells (AID 623885)
DETAILS: HEK293 GIRK rat mGlu3, thallium flux fluorescence; at 30 µM (top of the series)
Active and inactive are the calls of the source.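 The calls were made as follows: active = mean half-maximal effective concentration under 30 µM; inactive = the rest.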
REPORTED_ENDPOINT: percent of glutamate max response

Worked cases, percent of glutamate max response given:
STRUCTURE_NOTATION | REPORTED_ENDPOINT | RECORDED_MEASUREMENT
O=C(c1ccc(C#Cc2ccncc2)cc1)N1CCC(O)CC1 | percent of glutamate max response | inactive
CCCC1(O)CCN(C(=O)c2ccc(C#Cc3ccc(OC)cc3)cc2)CC1 | percent of glutamate max response | inactive
CN(C)c1ccc(C#Cc2ccc(C(=O)N3CCC(O)CC3)cc2)cc1 | percent of glutamate max response | inactive
COc1ccc(C#Cc2ccc(C(=O)N3CCC[C@@H](C(=O)O)C3)cc2)cc1 | percent of glutamate max response | 19.5
CCC1(O)CCN(C(=O)c2ccc(C#Cc3ccc(OC)cc3)cc2)CC1 | percent of glutamate max response | 46.4

So what's the measured percent of glutamate max response for this one? Cn1ccnc1C#Cc1ccc(C(=O)N2CCC(O)CC2)cc1
inactive

Reported percent of glutamate max response, molecule O=C(c1ccc(C#CC2(O)CCCCC2)cc1)N1CCC(O)CC1 : ____
inactive

// lookup percent of glutamate max response for CCC(N)(C#Cc1ccc(C(=O)N2CCC(O)CC2)cc1)CC
inactive

Requested read-out: percent of glutamate max response. Entry: O=C(c1ccc(C#CC2CC2)cc1)N1CCC(O)CC1
inactive

Would you kindly share the measured percent of glutamate max response for O=C(c1ccc(C#Cc2ccccn2)cc1)N1CCC(O)CC1 ?
inactive

Reported percent of glutamate max response, molecule O=C(c1ccc(C#Cc2c(C(F)(F)F)cccc2C(F)(F)F)cc1)N1CCC(O)CC1 : ____
54.9

Please report the recorded percent of glutamate max response for COc1ccc(C#Cc2ccc(C(=O)NC(C)C)cc2)cc1 .
inactive

Data request, read-out percent of glutamate max response, for O=C(c1ccc(C#CC2CCCCC2)cc1)N1CCC(O)CC1
37

I'd like to know its percent of glutamate max response. The molecule in question is CC(C)CCC#Cc1ccc(C(=O)N2CCC(O)CC2)cc1
24.7

So what's the measured percent of glutamate max response for this one? COc1ccc(C#Cc2ccc(C(=O)N[C@H](C)C3CCCCC3)cc2)cc1
inactive

Looking for the measured percent of glutamate max response of COc1ccc(C#Cc2ccc(C(=O)N(CCO)c3ccccc3)cc2)cc1 , can you help?
inactive

Name the recorded percent of glutamate max response for CC(C)(C)NC(=O)CN1CCc2cc(C#Cc3ccccc3)ccc2C1=O .
51.4

May I ask what percent of glutamate max response has been recorded for O=Cc1ccc(C#Cc2ccc(C(=O)N3CCC(O)CC3)cc2)cc1 ?
21.8

Query (molecule): COc1ccc(C#Cc2ccc(C(=O)N3CCC[C@@H](CO)C3)cc2)cc1 ; field requested: percent of glutamate max response
-0.47
